Listing of recorded CC50 by entry.
Test system: L1210
EXPERIMENT SUMMARY: Cytotoxicity against mouse L1210 cells 2 days by coulter counting
Assay type: functional
PARTICULARS: L1210, 48 h
Entry rule: numbers only, all in µM.

CCOP(=O)(OCC)[C@@H]1C[C@H](n2cc(-c3ccc(F)cc3F)nn2)ON1C (relative stereo); 124
CCOP(=O)(OCC)[C@@H]1C[C@@H](n2cc(C(=O)OC)nn2)ON1C (relative stereo); 191
CCOP(=O)(OCC)[C@@H]1C[C@@H](n2cc(-c3ccc(F)cc3F)nn2)ON1C (racemic); 131
CCOP(=O)(OCC)[C@@H]1C[C@H](n2cc(Cn3ccc(=O)[nH]c3=O)nn2)ON1C (racemic); 235
CCOP(=O)(OCC)[C@@H]1C[C@H](n2cc(Cn3cnc4c(N)ncnc43)nn2)ON1C (relative stereo); 147

Attention now turns to another entry.
[ask] Provide value of CC50 for this record tested with L1210: CCOP(=O)(OCC)[C@@H]1C[C@H](n2cc(C(=O)OC)nn2)ON1C (relative stereo)
[reply] 166

---

System: L1210
EXPERIMENT SUMMARY: Cytotoxicity against mouse L1210 cells 2 days by coulter counting
Format: functional
PARTICULARS: L1210, 48 h
QUANTITY KIND: CC50

Worked examples follow.
CCOP(=O)(OCC)[C@@H]1C[C@@H](n2cc(Cn3ccc(=O)[nH]c3=O)nn2)ON1C (relative stereo); > 250 µM
CCOP(=O)(OCC)[C@@H]1C[C@@H](n2cc(-c3cccc(F)c3)nn2)ON1C (racemic); ≥ 250 µM
CCOP(=O)(OCC)[C@@H]1C[C@@H](n2cc(-c3ccccc3)nn2)ON1C (racemic); > 250 µM

[ask] Could you share which CC50 value was measured for CCOP(=O)(OCC)[C@@H]1C[C@@H](n2cc(-c3nccn3C)nn2)ON1C ?
[reply] ≥ 250 µM
